biological target: Beta-3 adrenergic receptor (Homo sapiens); experiment: Agonist activity at human beta3 receptor expressed in CHO cells assessed as cAMP accumulation; assay type: functional, cell-based
Sequence (P13945 whole entry): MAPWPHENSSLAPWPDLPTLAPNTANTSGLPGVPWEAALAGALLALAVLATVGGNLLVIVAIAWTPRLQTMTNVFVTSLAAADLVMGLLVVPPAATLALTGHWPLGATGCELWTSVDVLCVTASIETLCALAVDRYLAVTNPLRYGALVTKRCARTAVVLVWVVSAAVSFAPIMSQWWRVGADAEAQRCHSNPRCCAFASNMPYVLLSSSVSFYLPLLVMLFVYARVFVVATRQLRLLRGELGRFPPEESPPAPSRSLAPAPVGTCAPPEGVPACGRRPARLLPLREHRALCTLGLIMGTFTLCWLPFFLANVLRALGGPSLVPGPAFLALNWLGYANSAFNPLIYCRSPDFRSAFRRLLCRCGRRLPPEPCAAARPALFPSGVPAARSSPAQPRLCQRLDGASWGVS
measured-parameter: EC50 (nM)
One number for each entry, in nM.

mol=CC(=O)O.CCNC(=O)Nc1cccc(CCCCOCCCCCCNC[C@H](O)c2ccc(O)c(CO)c2)c1 measured_parameter=EC50 unit_label=nM readout_number=158
mol=CC(=O)O.CCNC(=O)Nc1ccc(CCCCOCCCCCCNC[C@H](O)c2ccc(O)c(CO)c2)cc1 measured_parameter=EC50 unit_label=nM readout_number=12.6

Please state EC50 for every compound in the list that follows.
1. CC(=O)O.NC(=O)NCc1cccc(CCCCOCCCCCCNC[C@H](O)c2ccc(O)c(CO)c2)c1
2. O=C(CNC(=O)Nc1cccc(CCCCOCCCCCCNC[C@H](O)c2ccc(O)c(CO)c2)c1)NC1CCCC1
3. CC(=O)O.NC(=O)Nc1cc(CCCCOCCCCCCNC[C@H](O)c2ccc(O)c(CO)c2)cc(C(F)(F)F)c1
4. CC(=O)O.CCNC(=O)NCc1cccc(CCCCOCCCCCCNC[C@H](O)c2ccc(O)c(CO)c2)c1

# output
1: 15.8; 2: 12.6; 3: 25.1; 4: 31.6
